Hi there, I'd appreciate the recorded Amount Found for every entry that follows.
# Assay type: physicochemical
# DETAILS: 500 ppm standard, 0 minutes

# Amount Found (molecule: O=C1O[C@H]([C@@H](O)CO)C(O)=C1O ) is 534 ppm

// sample O=C(O)C(=O)[C@@H](O)[C@H](O)[C@@H](O)CO , its Amount Found was 510 ppm

Amount Found measured on CCCCOC(=O)C(=O)[C@@H](O)[C@H](O)[C@@H](O)CO [butyl-KLG, butyl 2-keto-L-gulonate] = 506 ppm

Record summary for COC(=O)C(=O)[C@@H](O)[C@H](O)[C@@H](O)CO [MeKLG, methyl-2-keto-L-gulonate] : reported Amount Found = 514 ppm
